System: biotinyl-Met-oxazolone
measurementProtocol: self-aminoacylation, catalytic enhancement (BMO) (fold over background); higher = more active; k-Seq, kA / k0A0; sequences stand for … in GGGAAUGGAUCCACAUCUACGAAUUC…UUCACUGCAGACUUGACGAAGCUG
Variants at the floor of the assay were thinned out.
Parameter self-aminoacylation: see the listing below.
reportedMetric: self-aminoacylation

[[record]]
primarysequence = "AUUCACUAAGGUCAUCGGGUG [Fam2.2 aminoacylation ribozyme variant]"
studysystem = "biotinyl-Met-oxazolone"
measuredresult = 5.33

[[record]]
primarysequence = "AUUCACAUAGGUCAUAGGGUG [Fam2.2 aminoacylation ribozyme variant]"
studysystem = "biotinyl-Met-oxazolone"
measuredresult = 2.17

[[record]]
primarysequence = "ACUCACCUAGGUCAUCUGGUG [Fam2.2 aminoacylation ribozyme variant]"
studysystem = "biotinyl-Met-oxazolone"
measuredresult = 1.87

[[record]]
primarysequence = "AUUCCCCCAGGUCAUCGGGUG [Fam2.2 aminoacylation ribozyme variant]"
studysystem = "biotinyl-Met-oxazolone"
measuredresult = 17.1


###

Test system: biotinyl-Leu-oxazolone
measurementProtocol: self-aminoacylation, catalytic enhancement (BLO) (fold over background); higher = more active; k-Seq, kA / k0A0; sequences stand for … in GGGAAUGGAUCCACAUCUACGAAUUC…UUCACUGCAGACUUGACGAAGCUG
Fewer inactive variants are shown than the library holds.
Recorded self-aminoacylation values for a group of sequences are listed next.
reportedMetric: self-aminoacylation

[[record]]
primarysequence = "AUUCCCCUGGUCAUGGAGUGA [Fam2.1 aminoacylation ribozyme variant]"
studysystem = "biotinyl-Leu-oxazolone"
measuredresult = 3.99

[[record]]
primarysequence = "AUUACCUUGGUCAUCAAGUGA [Fam2.1 aminoacylation ribozyme variant]"
studysystem = "biotinyl-Leu-oxazolone"
measuredresult = 3.54

[[record]]
primarysequence = "CUACUUCAAACACUCGGUGUG [Fam1A.1 aminoacylation ribozyme variant]"
studysystem = "biotinyl-Leu-oxazolone"
measuredresult = 1.5

[[record]]
primarysequence = "CUACCUCAAACAAUCAGUCUG [Fam1A.1 aminoacylation ribozyme variant]"
studysystem = "biotinyl-Leu-oxazolone"
measuredresult = 0.671

[[record]]
primarysequence = "CGACUUCAAACAAUCGCUCUG [Fam1A.1 aminoacylation ribozyme variant]"
studysystem = "biotinyl-Leu-oxazolone"
measuredresult = 1.42

[[record]]
primarysequence = "CUACUUCAAACAAUCGUUCAG [Fam1A.1 aminoacylation ribozyme variant]"
studysystem = "biotinyl-Leu-oxazolone"
measuredresult = 0.497

[[record]]
primarysequence = "AUUACCCUGGUGAUAGAGUGA [Fam2.1 aminoacylation ribozyme variant]"
studysystem = "biotinyl-Leu-oxazolone"
measuredresult = 8.59

[[record]]
primarysequence = "AAGUUAGCAAAUAGUCGCAAG [Fam3.1 aminoacylation ribozyme variant]"
studysystem = "biotinyl-Leu-oxazolone"
measuredresult = 1.32

[[record]]
primarysequence = "UUUACCCUGGUCAUAGAGUGA [Fam2.1 aminoacylation ribozyme variant]"
studysystem = "biotinyl-Leu-oxazolone"
measuredresult = 5.87

[[record]]
primarysequence = "CCACACUUCCAGAAAUCGGUC [Fam1B.1 aminoacylation ribozyme variant]"
studysystem = "biotinyl-Leu-oxazolone"
measuredresult = 1.13

[[record]]
primarysequence = "CCACACUUCAUGCAAUCGGGC [Fam1B.1 aminoacylation ribozyme variant]"
studysystem = "biotinyl-Leu-oxazolone"
measuredresult = 1.38

[[record]]
primarysequence = "AUUACCGUGGUCAUCUAGUGA [Fam2.1 aminoacylation ribozyme variant]"
studysystem = "biotinyl-Leu-oxazolone"
measuredresult = 6.26

[[record]]
primarysequence = "AUUACCCUGGUCUUAGAGUGA [Fam2.1 aminoacylation ribozyme variant]"
studysystem = "biotinyl-Leu-oxazolone"
measuredresult = 7.33

